Biological target: His6-ERα298-554 WT (ERα ligand-binding domain) (Homo sapiens (Human))
Sequence (P03372 298-554): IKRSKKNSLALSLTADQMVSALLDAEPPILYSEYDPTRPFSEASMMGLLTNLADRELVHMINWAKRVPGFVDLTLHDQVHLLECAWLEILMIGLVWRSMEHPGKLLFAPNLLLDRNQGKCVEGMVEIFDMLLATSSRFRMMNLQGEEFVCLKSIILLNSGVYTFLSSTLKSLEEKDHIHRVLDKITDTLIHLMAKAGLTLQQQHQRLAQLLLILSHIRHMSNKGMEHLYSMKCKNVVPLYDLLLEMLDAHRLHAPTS
Assay: Test A: biochemical antagonist activity, LanthaScreen TR-FRET ERα coactivator assay, WT
Settings: protocol with 3 nM estradiol; read-out: Antagonism WT IC50
observed.property: IC50 (nM)
Give bare numbers, in nM.

Examples from the recorded data:
compound: Oc1ccc2c(c1)SCC(c1ccc3c(c1)OC(F)(F)O3)=C2c1ccc(O[C@H]2CCN(CCCF)C2)cc1 [Example 31]
value.units: nM
result.value: 5

compound: Oc1ccc2c(c1)SCC(c1ccc3[nH]ccc3c1)=C2c1ccc(O[C@H]2CCN(CCCF)C2)cc1 [Example 19]
value.units: nM
result.value: 7

compound: Oc1ccc2c(c1)SCC(c1ccc(SC(F)(F)F)cc1)=C2c1ccc(O[C@H]2CCN(CCCF)C2)cc1 [Example 66]
value.units: nM
result.value: 59

compound: Oc1ccc2c(c1F)OCCC(c1ccc3c(c1)CCN3)=C2c1ccc(O[C@H]2CCN(CCCF)C2)cc1 [Example 107]
value.units: nM
result.value: 19

compound: Cc1ccc(C2=C(c3ccc(O[C@H]4CCN(CCCF)C4)cc3)c3ccc(O)cc3SC2)c(F)c1 [Example 16]
value.units: nM
result.value: 4

Provide reported IC50 for each item, in the same order as listed.
1. Oc1ccc2c(c1)SCCC(c1ccc3occc3c1)=C2c1ccc(O[C@H]2CCN(CCCF)C2)cc1 [Example 184]
2. CCOc1ccc(C2=C(c3ccc(O[C@H]4CCN(CCCF)C4)cc3)c3ccc(O)cc3SCC2)c(F)n1 [Example 187]
3. Cc1c(Cl)cccc1C1=C(c2ccc(O[C@H]3CCN(CCCF)C3)cc2)c2ccc(O)cc2S(=O)(=O)CC1 [Example 235]
4. CCOc1ccc(C2=C(c3ccc(O[C@H]4CCN(CCCF)C4)cc3)c3ccc(O)cc3SCC2)cc1F [Example 185]
5. Oc1ccc2c(c1)SCCC(c1ccc(OC(F)F)c(F)c1)=C2c1ccc(O[C@H]2CCN(CCCF)C2)cc1 [Example 191]

Marked response:
1. 1
2. 1.5
3. 13
4. 2.9
5. 3

For each of the items listed, what is its IC50?
1. Oc1ccc2c(c1)C(c1ccc(O[C@H]3CCN(CCCF)C3)cc1)=C(c1ccc(F)c(Cl)c1)CCS2 [Example 174]
2. O=S1(=O)CCC(c2cccc(O)c2)=C(c2ccc(O[C@H]3CCN(CCCF)C3)cc2)c2ccc(O)cc21 [Example 228]
3. Oc1ccc2c(c1)SCCC(c1ccc3[nH]ccc3c1)=C2c1ccc(O[C@H]2CCN(CCCF)C2)cc1 [Example 160]

Marked response:
1: 53; 2: 6; 3: 3

###

System: MCF7 cells (breast tumor cells) WT
Test: Test B: cell proliferation/viability assay (CellTiter-Glo) on MCF7 WT
Format: cell-based
Conditions: Homo sapiens, MCF7, 168 h, 7 days of compound exposure
observed.property: IC50 (pM)
Answers are plain numbers, in pM.

molecule: CS(=O)(=O)c1ccc(C2=C(c3ccc(O[C@H]4CCN(CCCF)C4)cc3)c3ccc(O)cc3SCC2)cc1 [Example 194]
IC50, pM: 200
//
molecule: Oc1ccc2c(c1)SCCC(c1ccc(OC(F)(F)F)cc1)=C2c1ccc(O[C@H]2CCN(CCCF)C2)cc1 [Example 214]
IC50, pM: 400
//
molecule: O=C(O)c1ccc2c(c1)SCCC(c1ccc(Cl)cc1Cl)=C2c1ccc(O[C@H]2CCN(CCCF)C2)cc1 [Example 203]
IC50, pM: 800
//
molecule: Cc1ccc(C2=C(c3ccc(O[C@H]4CCN(CCCF)C4)nc3)c3ccc(O)cc3CCC2)c(F)c1 [Example 237]
IC50, pM: 300
//
molecule: C[C@@H]1Cc2cc(C3=C(c4ccc(O[C@H]5CCN(CCCF)C5)cc4)c4ccc(O)cc4SCC3)ccc2O1 [Example 202]
IC50, pM: 400

Okay, here is my list. What is IC50 for each of these?
1. COc1ccc(C2=C(c3ccc(O[C@H]4CCN(CCCF)C4)cc3)c3ccc(O)cc3OCC2)c(C)c1 [Example 157]
2. CCOc1cc(F)c(C2=C(c3ccc(O[C@H]4CCN(CCCF)C4)cc3)c3ccc(O)cc3SCC2)cc1F [Example 220]

Marked response:
1: 200; 2: 400

###

Tested on: MCF7 cells (breast tumor cells) WT
Experiment: Test B: cell proliferation/viability assay (CellTiter-Glo) on MCF7 WT
Assay type: cell-based
Settings: Homo sapiens, MCF7, 168 h, 7 days of compound exposure
Description: Test B: Cell Proliferation/Viability Assay on MCF7 (Breast Tumor Cells) WT and Mutants Cell Lines Test B involves measuring the in vitro proliferation activity of the compounds of the invention by analyzing the viability of the tumor cells. The measurements of the viability were made using a breast cancer cell viability assay as described hereunder. […] The percent of viability of each sample was determined as follows: (RLU sample−RLU background/RLU untreated−RLU background)*100=% viability.
observed.property: IC50 (nM)
One number for each entry, in nM.

Some entries whose results are on file:
compound: Oc1ccc2c(c1)SCC(c1ccc(CF)cc1)=C2c1ccc(O[C@H]2CCN(CCCF)C2)cc1
value.units: nM
IC50: 2
--
compound: CC1(C)CNc2ccc(C3=C(c4ccc(O[C@H]5CCN(CCCF)C5)cc4)c4ccc(O)cc4SC3)cc21
value.units: nM
IC50: 95

State the recorded IC50 for every item in the following list.
1. CCOc1ccc(C2=C(c3cnc(O[C@H]4CCN(CCCF)C4)nc3)c3ccc(O)cc3CCC2)c(F)c1F
2. Oc1ccc2c(c1)SCCC(c1ccc(OC(F)(F)F)c(F)c1)=C2c1ccc(O[C@H]2CCN(CCCF)C2)cc1
3. Cc1c(Cl)cccc1C1=C(c2ccc(O[C@H]3CCN(CCCF)C3)cc2)c2ccc(O)c(F)c2OCC1

Marked response:
1: 0.4; 2: 0.2; 3: 0.5

###

Target: His6-ERα298-554 D538G mutant (ERα ligand-binding domain) (Homo sapiens (Human), UniProt P03372, D538G)
Sequence (P03372 298-554 D538G): as the sequence (P03372 298-554) above, with D241G counted along it
Assay: Test A: biochemical antagonist activity, LanthaScreen TR-FRET ERα coactivator assay, D538G mutant
Details: asterisk (*): protocol using 10 nM estradiol; read-out: Antagonism D538G IC50
observed.property: pIC50
One number for each entry, as −log10 of the molar value.

compound: Oc1ccc2c(c1)SCC(c1ccc3c(c1)OCCO3)=C2c1ccc(O[C@H]2CCN(CCCF)C2)cc1 [Example 28]
result.value: 7.17

List the reported pIC50 of each compound below.
1. Cc1ccc(C2=C(c3cnc(O[C@H]4CCN(CCCF)C4)nc3)c3ccc(O)cc3CCC2)c(F)c1 [Example 244]
2. COc1ccc(C2=C(c3ccc(O[C@H]4CCN(CCCF)C4)cc3)c3ccc(O)cc3OCC2)c(Cl)c1 [Example 154]
3. CCOc1ccc(C2=C(c3cnc(O[C@H]4CCN(CCCF)C4)nc3)c3ccc(O)cc3SC2)c(F)n1 [Example 76]

Marked response:
[7.17, 7.11, 7.00]

###

Target: His6-ERα298-554 Y537S mutant (ERα ligand-binding domain) (Homo sapiens (Human), UniProt P03372, Y537S)
Sequence (P03372 298-554 Y537S): as the sequence (P03372 298-554) above, with Y240S counted along it
Experiment: Test A: biochemical antagonist activity, LanthaScreen TR-FRET ERα coactivator assay, Y537S mutant
Details: asterisk (*): protocol using 10 nM estradiol; read-out: Antagonism Y537S IC50
observed.property: IC50

Below, each entry is followed by its recorded IC50 result.
compound: CONC(=O)c1cc(C2=C(c3ccc(O[C@H]4CCN(CCCF)C4)cc3)c3ccc(O)cc3SCC2)ccc1F
IC50: 316 nM

compound: Oc1ccc2c(c1)CCCC(c1ccc(Cl)c(F)c1)=C2c1cnc(O[C@H]2CCN(CCCF)C2)cn1
IC50: 179 nM

compound: Oc1ccc2c(c1)SCCC(c1ccc(OC(F)(F)F)c(F)c1)=C2c1ccc(O[C@H]2CCN(CCCF)C2)cc1
IC50: 425 nM

Okay, here is my list. What is IC50 for each of these?
1. CCOc1ccc(C2=C(c3ccc(O[C@H]4CCN(CCCF)C4)nc3)c3ccc(O)cc3SC2)c(F)n1
2. Oc1ccc2c(c1)CCCC(c1ccc(OC(F)(F)F)cc1F)=C2c1ccc(N[C@H]2CCN(CCCF)C2)cc1
3. CCOc1ccc(C2=C(c3ccc(N[C@H]4CCN(CCCF)C4)cc3)c3ccc(O)cc3CCC2)c(F)n1
4. Cc1ccc(C2=C(c3ccc(O[C@H]4CCN(CCCF)C4)nc3)c3ccc(O)cc3CCC2)c(F)c1

Marked response:
["5 nM", "159 nM", "5 nM", "5 nM"]

###

Provide the recorded IC50 for the entries that follow.
Target: His6-ERα298-554 Y537S mutant (ERα ligand-binding domain) (Homo sapiens (Human), UniProt P03372, Y537S)
Experiment: Test A: biochemical antagonist activity, LanthaScreen TR-FRET ERα coactivator assay, Y537S mutant
Conditions: asterisk (*): protocol using 10 nM estradiol; read-out: Antagonism Y537S IC50
Numbers only, in nM.

Look over these answered cases.
compound: Oc1ccc2c(c1)SCC(c1ccc(OC(F)(F)F)cc1)=C2c1ccc(O[C@H]2CCN(CCCF)C2)nc1 [Example 80]
IC50 / nM: 154
--
compound: CCOc1ccc(C2=C(c3ccc(O[C@H]4CCN(CCCF)C4)cc3)c3ccc(O)cc3SC2)c(F)n1 [Example 27]
IC50 / nM: 21
--
compound: CC(C)(C)c1ccc(C2=C(c3ccc(N[C@H]4CCN(CCCF)C4)cc3)c3ccc(O)cc3CCC2)cc1 [Example 89]
IC50 / nM: 423

Each compound below has a reported value. Please supply its IC50.
1. Oc1ccc2c(c1)SCC(c1ccc(OC(F)(F)F)cc1)=C2c1ccc(O[C@H]2CCN(CCCF)C2)cc1 [Example 54]
2. Oc1cc2c(cc1F)C(c1ccc(O[C@H]3CCN(CCCF)C3)cc1)=C(c1ccc3occc3c1)CCO2 [Example 156]

Marked response:
1. 2640
2. 254
